- tested target: Full length DGKα (D21-10BG, SignalChem) (Homo sapiens, UniProt P23743)
- Sequence (P23743 whole entry): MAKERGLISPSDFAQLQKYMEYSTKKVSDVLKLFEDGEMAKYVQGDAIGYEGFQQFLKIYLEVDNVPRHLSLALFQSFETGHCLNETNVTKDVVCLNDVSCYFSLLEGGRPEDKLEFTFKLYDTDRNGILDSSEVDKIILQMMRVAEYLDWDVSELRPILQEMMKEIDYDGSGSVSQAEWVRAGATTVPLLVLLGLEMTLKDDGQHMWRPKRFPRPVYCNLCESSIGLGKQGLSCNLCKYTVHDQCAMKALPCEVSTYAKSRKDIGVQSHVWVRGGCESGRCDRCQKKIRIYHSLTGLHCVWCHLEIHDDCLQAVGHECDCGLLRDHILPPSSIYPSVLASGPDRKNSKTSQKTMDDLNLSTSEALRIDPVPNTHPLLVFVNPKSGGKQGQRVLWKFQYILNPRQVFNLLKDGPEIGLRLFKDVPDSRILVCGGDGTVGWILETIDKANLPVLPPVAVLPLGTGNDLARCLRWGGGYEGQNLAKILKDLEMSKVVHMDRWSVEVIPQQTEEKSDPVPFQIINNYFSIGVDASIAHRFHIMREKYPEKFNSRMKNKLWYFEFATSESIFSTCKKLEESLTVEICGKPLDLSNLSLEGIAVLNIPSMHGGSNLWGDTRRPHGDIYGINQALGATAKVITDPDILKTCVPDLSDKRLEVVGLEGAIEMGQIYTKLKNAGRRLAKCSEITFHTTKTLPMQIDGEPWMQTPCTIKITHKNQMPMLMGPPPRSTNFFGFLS
Cut-off 0.2 µM on IC50: below means Condition met, at or above means Condition not met.

For orientation, consider the following solved cases.
[[record]]
compound = "[2H]C([2H])([2H])n1c(=O)cc(N2C[C@@H](CC)N(C(C)c3ccc4nc(C)sc4c3)C[C@@H]2CC)c2nc(CC#N)cn21 (single isomer, unassigned) [Compound A94b]"
assigned_category = "Condition not met"

[[record]]
compound = "CC[C@@H]1CN(c2cc(=O)n(C)n3cc(CC#N)nc23)[C@@H](C)CN1C(C)c1ccc(C(F)(F)F)cc1F (single isomer, unassigned) [Compound A17a]"
assigned_category = "Condition met"

[[record]]
compound = "CC[C@H]1CN(C(C)c2ccc3scnc3c2)[C@H](CC)CN1c1cc(=O)n(C)n2cc(CC#N)nc12 (single isomer, unassigned) [Compound A65b]"
assigned_category = "Condition met"

[[record]]
compound = "CC[C@@H]1CN(c2cc(=O)n(C)n3cc(C=NOC)nc23)[C@@H](C)CN1C(C)c1ccc2nccnc2c1 (single isomer, unassigned) [Compound A9d]"
assigned_category = "Condition not met"


Next:
Does CC[C@H]1CN(C(C)c2ccc3nc(C4CC4)sc3n2)[C@H](CC)CN1c1cc(=O)n(C)n2cc(CC#N)nc12 (single isomer, unassigned) [Compound A109b] have IC50 strictly under 0.2 µM? Condition met

----------
For Full length DGKα (D21-10BG, SignalChem) (Homo sapiens, UniProt P23743), measured log10 IC50 is reported for the entries below.
Scale: log10; quantity: IC50; unit before log: nM

Looking for the measured log10 IC50 of CCC(c1ccc(C(F)(F)F)cc1)N1C[C@H](CC)N(c2cc(=O)n(C)n3cc(CC#N)nc23)C[C@H]1CC (single isomer, unassigned) [Compound A77a] , can you help? 2.01

----------
- tested target: Full length DGKα (D21-10BG, SignalChem) (Homo sapiens, UniProt P23743)
# log10 IC50 per entry
Scale: log10; quantity: IC50; unit before log: µM

Example entries begin here.
[[record]]
compound = "CC[C@H]1CN(C(C)c2ccc(C(C)(F)F)nc2)[C@H](CC)CN1c1cc(=O)n(C)n2cc(CC#N)nc12 (single isomer, unassigned) [Compound A90b]"
tested_target = "Full length DGKα (D21-10BG, SignalChem) (Homo sapiens, UniProt P23743)"
experimental_result = -0.41

[[record]]
compound = "CC[C@H]1CN(C(C)c2ccc(OC)cn2)[C@H](CC)CN1c1cc(=O)n(C)n2cc(CC#N)nc12 (stereo partly shown)"
tested_target = "Full length DGKα (D21-10BG, SignalChem) (Homo sapiens, UniProt P23743)"
experimental_result = -1.52

[[record]]
compound = "CC[C@H]1CN(C(C)c2ccc(C3(F)CC3)cc2)[C@H](CC)CN1c1cc(=O)n(C)n2cc(CC#N)nc12 (stereo partly shown)"
tested_target = "Full length DGKα (D21-10BG, SignalChem) (Homo sapiens, UniProt P23743)"
experimental_result = -1.14

[[record]]
compound = "CC[C@H]1CN(C(C)c2ccc3ncsc3n2)[C@H](CC)CN1c1cc(=O)n(C)n2cc(CC#N)nc12 (single isomer, unassigned) [Compound A57a]"
tested_target = "Full length DGKα (D21-10BG, SignalChem) (Homo sapiens, UniProt P23743)"
experimental_result = -2.10

[[record]]
compound = "CC[C@H]1CN(C(C)c2ccc3nc(C)sc3n2)[C@H](CC)CN1c1cc(=O)n(C)n2cc(CC#N)nc12 (single isomer, unassigned) [Compound A58a]"
tested_target = "Full length DGKα (D21-10BG, SignalChem) (Homo sapiens, UniProt P23743)"
experimental_result = 0.09

[[record]]
compound = "CC[C@H]1CN(C(C)c2ccc3ncsc3c2F)[C@H](CC)CN1c1cc(=O)n(C)n2cc(CC#N)nc12 (single isomer, unassigned) [Compound A62b]"
tested_target = "Full length DGKα (D21-10BG, SignalChem) (Homo sapiens, UniProt P23743)"
experimental_result = 0.38

[[record]]
compound = "CCC(c1ccc2nc(C)sc2n1)N1C[C@H](CC)N(c2cc(=O)n(C)n3cc(CC#N)nc23)C[C@H]1CC (single isomer, unassigned) [Compound A99b]"
tested_target = "Full length DGKα (D21-10BG, SignalChem) (Homo sapiens, UniProt P23743)"
experimental_result = -1.68

[[record]]
compound = "CC[C@@H]1CN(c2cc(=O)n(C)n3cc(CC#N)nc23)[C@@H](C)CN1C(C)c1ccc(C2CC2)nc1 (single isomer, unassigned) [Compound A43b]"
tested_target = "Full length DGKα (D21-10BG, SignalChem) (Homo sapiens, UniProt P23743)"
experimental_result = 0.17

[[record]]
compound = "CC[C@@H]1CN(c2cc(=O)n(C)n3cc(C=NOC)nc23)[C@@H](C)CN1C(C)c1ccc2nccnc2c1 (single isomer, unassigned) [Compound A9a]"
tested_target = "Full length DGKα (D21-10BG, SignalChem) (Homo sapiens, UniProt P23743)"
experimental_result = -0.13

[[record]]
compound = "CC#CCc1cn2c(n1)c(N1C[C@@H](CC)N(C(C)c3ccc4nc(C)sc4c3)C[C@@H]1CC)cc(=O)n2C (single isomer, unassigned) [Compound A68b]"
tested_target = "Full length DGKα (D21-10BG, SignalChem) (Homo sapiens, UniProt P23743)"
experimental_result = -0.28


Would you kindly share the measured log10 IC50 for CC[C@@H]1CN(c2cc(=O)n(C)n3cc(CC#N)nc23)[C@@H](C)CN1C(C)c1ccc(C2CC2)nc1 (single isomer, unassigned) [Compound A43a] ? -0.55

Repeat with CC(c1ccc2c(c1)OC(C)(C)CO2)N1C[C@H](C)N(c2c(C#N)c(=O)n(C)n3cc(CC#N)nc23)C[C@H]1C (single isomer, unassigned) [Compound A27a] 0.35

Please give the result for CCc1nc2ccc(C(C)N3C[C@H](C)N(c4cc(=O)n(C)n5cc(CC#N)nc45)C[C@H]3CC)cc2s1 (single isomer, unassigned) [Compound A101b] too. 0.37

Also check CC(c1ccc2c(c1)OCCO2)N1C[C@H](C)N(c2cc(=O)n(C)n3cc(CC#N)nc23)C[C@H]1C (stereo partly shown) 0.46

Also, CC[C@H]1CN(C(C)c2ccc3cc(F)sc3n2)[C@H](CC)CN1c1cc(=O)n(C)n2cc(CC#N)nc12 (single isomer, unassigned) [Compound A105b] please. -2.48

# iterate: [2H]C([2H])([2H])c1nc2ccc(C(C)N3C[C@H](CC)N(c4cc(=O)n(C([2H])([2H])[2H])n5cc(CC#N)nc45)C[C@H]3CC)cc2s1 (single isomer, unassigned) [Compound A97a] -1.10

Same question for CC[C@H]1CN(C(C)c2cc3scnc3cc2F)[C@H](CC)CN1c1cc(=O)n(C)n2cc(CC#N)nc12 (single isomer, unassigned) [Compound A59a] please. -1.27

Query CC[C@H]1CN(C(C)c2ccc(C3CC3)nc2F)[C@H](CC)CN1c1cc(=O)n(C)n2cc(CC#N)nc12 (single isomer, unassigned) [Compound A42a] next -0.47

Repeat for the following compound: CC[C@H]1CN(C(C)c2ccc(C(C)(F)F)nc2)[C@H](CC)CN1c1cc(=O)n(C)n2cc(CC#N)nc12 (single isomer, unassigned) [Compound A90a] -0.92
